B1: TPR t1 (parent)
chain: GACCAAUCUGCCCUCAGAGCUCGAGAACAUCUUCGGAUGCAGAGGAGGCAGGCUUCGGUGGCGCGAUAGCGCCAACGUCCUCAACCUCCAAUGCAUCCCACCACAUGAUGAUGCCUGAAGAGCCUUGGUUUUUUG

Variants of: B1
Method Summary: polymerase ribozyme fitness, log enrichment relative to wild type (log ratio); higher = more active; in vitro selection for triplet polymerase activity
Hi all, reminder that labels come from polymerase ribozyme fitness (log ratio), split as LOW: < -3; MID: ≥ -3 and < -2; HIGH: ≥ -2

Sequence	Class Name
GGCUAAUCUGCCCUCAGAGCUCGAGAACAUCUUCGGAUGCAGAGGAGGCAGGCUUCGGUGGCGCGAUAGCGCCAACGUACUCAACCUCCAAUGCAUCCCACCACAUGAUGAUGCAUGAAGAGCCUUGGUUUUUUG	LOW
GACCAAUGUGCCCUCAGAGCUCGAGAACAUCUUCGGAUGCAGAGGAGGCAGGCUUCGGUGGCGCGAUAGCGCCAACGUCCUCAACCUCCAAUGCAUCCCACCACAUGAUGCUUCCUGAAGAGCCUUGGUUUUUUG	LOW
GACCAAUCUGCCCUCAGAGCUCGAGAACAUCUUCGGAUGCAGAGGAGGCAGGCUUCGGUGGUGCGAUAGCGCCAACGUCCUCAGCCUCCAAUGCAUCCCAACACAUGAUGAUGCCUGAAGAGUCUUGGUUUUUUG	HIGH
GACCAAUCUGCCCUCAGAGCUCGAGAAUAUCUUCGGAUGCAGAGGAGGCAGGCUUCGGUGGCGCGAUAGCGACAACGUCCUCAACCUCCAAUGCAUCCCACCACAUGAUGAUGCCUGAAGAGCCUUGGUUUUUUG	MID
GACCAAUCUGCCCUCAGAGGUCGAGAACAUCUUCGGAUGCAGAGGAGGCAGGCUUCGGUGGCGCGAUAGCGCCAACGUCCUCAACCUCCAAUGCAUCCCACCACAUGAUGACGCCUGAAGAGCCUUGGUUUUUUG	MID
GACCAAUCUGCCCUCAGAGCUCGAGAACAUCUUCGGAUGCAGAGGAGGCAGGCUUCGGUGCCGCGAUAGCGCCAACGUCCUCAAUCUCCAAUGCAUCCCACCACAUGAUGAUGCCUGAAGAGCCUUGGUUUUUUG	HIGH
GUCCAAUCUGCCCUCAGAGCUCGAGAACAUCUUCGGAUGCAGAGGAGGCAGGCUUCGGUGGCUCGAUAGCGCCAACGUCCUCAACCUCCAAUGCAUCCCACCACAUGAUGAUGCCUGAAGAGCCUUGGUUUUUUG	LOW
GACCAAUCUGCCCUCAGAGCUCGAGAACAUCUUCGGAUGCAGAGGAGGCAGACUUCGGUGGCGCGAUAGCGCCAACGUCCUCAACCUCCAAUACAUCCCACCACAUGAUGAUGCCUGAAGAGCCUUGGUUUUUUG	HIGH
GACCAAUCUGCCCUCAGAGCUCGAGAACAUCUUCGGAUGCAGAGGAGGCAGGCUUCGGUGGCGCGAUAGCGCCAACGUCCUCAACCUCCAAUGCAUCCCACCAAAUGAUGUUGCCUGAAGAGCCUUGGUUUUUUG	LOW
GACCAAUAUGCCCUCAGAGCUCGAGAACAUCUUCGGAUGCAGAGGGGGCAGGCUUCGGUGGCGCGAUAGCGCCAACGUCCUCAACCUCCAAUGCAUCCCAUCACAUGAUGAUGCCUGAAGAGCCUUGGUUUUUUG	HIGH
